# Test system: Pseudomonas aeruginosa K799/61
# method_notes: In-vitro antimicrobial activity primary screen (agar dilution MIC)
# Assay type: cell-based
# test_conditions: Pseudomonas aeruginosa K799/61; BHI agar, 20-24 h; read-out: MIC
Quick list: MIC per entry.
Reply with the number and its unit after it.

CC[C@H]1OC(=O)[C@H](C)[C@@H](O[C@H]2C[C@@](C)(OC)[C@@H](NC(N)=O)[C@H](C)O2)[C@H](C)[C@@H](O[C@@H]2O[C@H](C)C[C@H](N(C)C)[C@H]2O)[C@](C)(O)C[C@@H](C)[C@@H]2O[C@@]1(C)C(=O)[C@H]2C [Example 32] | 0.78 µg/mL
CC[C@H]1OC(=O)[C@H](C)[C@@H](O[C@H]2C[C@@](C)(OC)[C@@H](N)[C@H](C)O2)[C@H](C)[C@@H](O[C@@H]2O[C@H](C)C[C@H](N(C)C)[C@H]2O)[C@](C)(O)C[C@@H](C)[C@@H]2O[C@@]1(C)[C@@H](N)[C@H]2C [Example 22] | 0.39 µg/mL
CC[C@H]1OC(=O)[C@H](C)[C@@H](O[C@H]2C[C@@](C)(OC)[C@@H](N)[C@H](C)O2)[C@H](C)[C@@H](O[C@@H]2O[C@H](C)C[C@H](N(C)C)[C@H]2O)[C@](C)(O)C[C@@H](C)[C@@H]2O[C@@]1(C)[C@@H](O)[C@H]2C [Example 15] | 0.78 µg/mL

Turning to the following compound.
Measured MIC, CC[C@H]1OC(=O)[C@H](C)[C@@H](O[C@H]2C[C@@](C)(OC)[C@H](O)[C@H](C)O2)[C@H](C)[C@@H](O[C@@H]2O[C@H](C)C[C@H](N(C)C)[C@H]2O)[C@](C)(O)C[C@@H](C)[C@@H]2O[C@@]1(C)C(=O)[C@H]2C [Example 21] : 0.39 µg/mL
